# procedure_summary: gradient 5% acetonitrile 3 min, to 50% in 2 min, to 85% in 15 min, held 3 min, 100 µL/min
# measurement_conditions: column: Zorbax Extend-C18 2.1 x 50 mm; eluents: water / acetonitrile, 0.1% formic acid
assay_readout: RP-LC retention time (s)

chem_smiles: COc1ccc(C(=O)N2CCN(c3nc(CN4CCOCC4)cs3)CC2)cc1
value_units: s
RP-LC retention time: 833
//
chem_smiles: Cc1ccc(-c2cc3c4nnc(CCC(=O)N5CCN(C6CCCCC6)CC5)n4ccn3n2)cc1C
value_units: s
RP-LC retention time: 682
//
chem_smiles: Cc1nc(N2CCOCC2)c2c(C)c(C(=O)Nc3cccc(Cl)c3C)sc2n1
value_units: s
RP-LC retention time: 885
//
chem_smiles: CC(C)c1ccc(OCC(=O)Nc2cnn(C)c(=O)c2N2CCOCC2)cc1
value_units: s
RP-LC retention time: 952

====

# procedure_summary: gradient 5% acetonitrile 3 min, to 50% in 2 min, to 85% in 15 min, held 3 min, 100 µL/min
# measurement_conditions: column: Zorbax Extend-C18 2.1 x 50 mm; eluents: water / acetonitrile, 0.1% formic acid
assay_readout: RP-LC retention time (s)

Solved entries:
molecule: COc1ccc2cc(OCC3(C(=O)O)CN(C(=O)c4ccc(F)cc4)C3)ccc2c1
measured_number: 969
//
molecule: Cc1noc(-c2nn(C)c3c2CN(C(=O)CC2CCCC2)CC3)n1
measured_number: 759
//
molecule: N#Cc1cccc(NC(=O)C2CCN(S(=O)(=O)c3ccc4c(c3)NC(=O)CO4)CC2)c1
measured_number: 763
//
molecule: Cc1ccc(F)cc1NC(=O)Cn1cnc2nc(N3CCCC(C(=O)NC(C)C)C3)sc2c1=O (stereo not given)
measured_number: 712

P = Cc1sc(-c2nnc(C(C)C)o2)cc1NC(=O)C1CCC1
Q = CNC(=O)c1cc(N2CCCC2)nc2c(Cl)cccc12
[Q] Between P and Q , which one has the lower reported RP-LC retention time value? Pick one; state its label.
[A] Q

====

# procedure_summary: gradient 5% acetonitrile 3 min, to 50% in 2 min, to 85% in 15 min, held 3 min, 100 µL/min
# measurement_conditions: column: Zorbax Extend-C18 2.1 x 50 mm; eluents: water / acetonitrile, 0.1% formic acid
assay_readout: RP-LC retention time (s)

chem_smiles: Cc1ccn2cc(-c3ccc(NS(=O)(=O)c4cccc(Cl)c4)cc3)nc2n1
RP-LC retention time, s: 679
//
chem_smiles: CCc1nc2cc(-c3noc(C4(c5ccc(OC)cc5)CC4)n3)ccc2o1
RP-LC retention time, s: 690
//
chem_smiles: N#C/C(=C\c1c[nH]c2ccccc12)C(N)=O
RP-LC retention time, s: 713
//
chem_smiles: COc1ccc(NC(=O)Nc2cccc(-c3ccc(N4CCCCC4)nn3)c2)c(OC)c1
RP-LC retention time, s: 719
//
chem_smiles: O=C(NC1CCCC1)c1cccnc1N1CCCCC1
RP-LC retention time, s: 684

====

# procedure_summary: gradient 5% acetonitrile 3 min, to 50% in 2 min, to 85% in 15 min, held 3 min, 100 µL/min
# measurement_conditions: column: Zorbax Extend-C18 2.1 x 50 mm; eluents: water / acetonitrile, 0.1% formic acid
assay_readout: RP-LC retention time (s)

Recorded RP-LC retention time, per entry:
compound: COCCc1noc(C2CN(C(=O)C3(c4ccc(OC)cc4)CC3)C2)n1
value_units: s
RP-LC retention time: 738

compound: CCOC(=O)c1sc(NC(=O)c2ccc(Br)cc2F)nc1C
value_units: s
RP-LC retention time: 986

compound: Cc1ccc(C)c(NC(=O)Cn2c(=O)n(-c3ccc(F)cc3)c(=O)c3c2cc(C)n3C)c1
value_units: s
RP-LC retention time: 931

I = COc1cccc(-c2cc(=O)n3c4ccccc4n(CC(=O)Nc4ccc(F)cc4)c3n2)c1
II = Cc1noc(C)c1CC(=O)N1CCOc2ccc(NC(=O)C3CC3)cc2C1
[Q] I'm curious, which of these has a smaller RP-LC retention time number: I or II ? Indicate which entry you chose by stating its label.
[A] II
(II: 676 s, I: 980 s)

====

# procedure_summary: gradient 5% acetonitrile 3 min, to 50% in 2 min, to 85% in 15 min, held 3 min, 100 µL/min
# measurement_conditions: column: Zorbax Extend-C18 2.1 x 50 mm; eluents: water / acetonitrile, 0.1% formic acid
assay_readout: RP-LC retention time (s)

1 = O=C(Nc1ccc(F)cc1F)N1CCCC1c1nc(-c2ccc(F)cc2F)no1 (stereo not drawn)
2 = CCOC(=O)c1c(C)oc2ncnc(N3CCN(c4ccccn4)CC3)c12
[Q] Which numeric RP-LC retention time is bigger, that of 1 or that of 2 ? Write down the label of the entry you select.
[A] 1
(1: 946 s, 2: 628 s)

====

# procedure_summary: gradient 5% acetonitrile 3 min, to 50% in 2 min, to 85% in 15 min, held 3 min, 100 µL/min
# measurement_conditions: column: Zorbax Extend-C18 2.1 x 50 mm; eluents: water / acetonitrile, 0.1% formic acid
assay_readout: RP-LC retention time (s)

compound: Nc1nc(SCC(=O)Nc2ccc(F)c(Cl)c2)n[nH]1
RP-LC retention time (s): 621

a = COc1ccc(Nc2nc(N)c3ccccc3n2)cc1
b = Cc1ccc(-c2noc(C3CCCN3C(=O)c3cncc(Br)c3)n2)cc1 (stereo not drawn)
[Q] When a and b are compared, which has the higher number for RP-LC retention time? Answer by quoting the chosen item's label.
[A] b

====

# procedure_summary: gradient 5% acetonitrile 3 min, to 50% in 2 min, to 85% in 15 min, held 3 min, 100 µL/min
# measurement_conditions: column: Zorbax Extend-C18 2.1 x 50 mm; eluents: water / acetonitrile, 0.1% formic acid
assay_readout: RP-LC retention time (s)

compound: Cc1cccc(-n2nc(C)c3sc(N(C)CC(=O)N4CCN(c5ccccn5)CC4)nc32)c1
RP-LC retention time, s: 700
//
compound: COc1ccc(C(=O)Nc2nc(-c3ccc4c(c3)NC(=O)CO4)c(C)s2)cc1
RP-LC retention time, s: 881
//
compound: CCN(CC)c1nc2cc(C(=O)OC)ccc2c(=O)n1-c1cc(OC)cc(OC)c1
RP-LC retention time, s: 1090
//
compound: COc1cccc(-c2noc(C3CCCN3C(=O)C3CCC3)n2)c1 (centres undefined)
RP-LC retention time, s: 912

====

# procedure_summary: gradient 5% acetonitrile 3 min, to 50% in 2 min, to 85% in 15 min, held 3 min, 100 µL/min
# measurement_conditions: column: Zorbax Extend-C18 2.1 x 50 mm; eluents: water / acetonitrile, 0.1% formic acid
assay_readout: RP-LC retention time (s)

compound: CC(NC(=O)c1cccnc1)c1nc(-c2ccccc2)no1 (stereo unspecified)
RP-LC retention time [s]: 694
--
compound: Cc1ccc(S(=O)(=O)N2CC(c3nnc(-c4ccncc4)o3)C3(CCOCC3)C2)cc1 (stereo unspecified)
RP-LC retention time [s]: 697
--
compound: Cc1oc(-c2[nH]ncc2C(=O)N(C)C)cc1S(=O)(=O)Nc1cccc(Cl)c1
RP-LC retention time [s]: 703
--
compound: NC(=O)[C@H](Cc1ccccc1)NC(=O)[C@H](Cc1c[nH]c2ccccc12)NC(=O)[C@@H]1CCCN1C(=O)[C@@H](N)Cc1ccc(O)cc1
RP-LC retention time [s]: 680
--
compound: COc1ccc2[nH]cc(CCNC(=O)CCCn3c4ccccc4c4cnn(C)c(=O)c43)c2c1
RP-LC retention time [s]: 795
--
compound: COCc1nc2ccccc2n1CC(=O)Nc1ccccc1
RP-LC retention time [s]: 780

====

# procedure_summary: gradient 5% acetonitrile 3 min, to 50% in 2 min, to 85% in 15 min, held 3 min, 100 µL/min
# measurement_conditions: column: Zorbax Extend-C18 2.1 x 50 mm; eluents: water / acetonitrile, 0.1% formic acid
assay_readout: RP-LC retention time (s)

Some compounds with recorded RP-LC retention time:
compound: CC(C)N1CCC(c2nnc3n2CCN(S(=O)(=O)c2ccccc2C(F)(F)F)C3)C1 (stereo not given)
RP-LC retention time [s]: 631
--
compound: O=C(c1cc2ccccc2[nH]1)N1CCN(C(=O)c2ccc(Br)o2)CC1
RP-LC retention time [s]: 797
--
compound: Cc1nc2cccnc2n1CC1CCCN(S(=O)(=O)Cc2ccccc2)C1 (stereo not given)
RP-LC retention time [s]: 654
--
compound: COc1cc(-c2noc(-c3nc(-c4ccc(C)cc4)no3)n2)cc(OC)c1OC
RP-LC retention time [s]: 1260
--
compound: CCc1ccc(S(=O)(=O)N2CCc3nc(CNC(=O)C4CCC4)n(C)c3C2)cc1
RP-LC retention time [s]: 652

I = CCc1noc(NC(C)=O)c1-c1ccc(OC)c(S(=O)(=O)NCc2ccccc2OC)c1
II = O=C(COc1ccccc1)Nc1ccc(-c2nc(-c3ccc(Cl)cc3)no2)cc1
[Q] Would you kindly point out which of I and II has the smaller RP-LC retention time figure? Mark your answer with the label of the selected entry.
[A] I
(I: 791 s, II: 1280 s)
